Each item that follows carries a reported Relative activity of maturated deamidase (% initial rate).
ASSAYED_TARGET: T1, Chryseobacterium sp-62563 deamidase polypeptide (second polypeptide, deamidase domain), wildtype (Chryseobacterium sp-62563)
T1 sequence: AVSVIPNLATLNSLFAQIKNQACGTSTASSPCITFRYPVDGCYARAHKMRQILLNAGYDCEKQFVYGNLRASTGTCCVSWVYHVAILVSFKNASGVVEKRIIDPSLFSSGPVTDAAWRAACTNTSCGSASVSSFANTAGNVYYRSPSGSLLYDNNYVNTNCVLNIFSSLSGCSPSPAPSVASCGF
MEASUREMENT_PROTOCOL: cell-based or functional assay
Respond numerically, and do not add a unit to the figure.

Exercise: // query Relative activity of maturated deamidase (% initial rate) value for entry Chryseobacterium sp-62563 propeptide F95V (protein) NQDPNLVAKESNETAMKDFGKTVPVGIEKEDGKFKISFMVTAQPYEIKDSKENAAYISMIKTAVENETPIHVFLKANTNEIAKVDKATDDDIRYVKSVFTKEVKEENRK
Key: 66

Exercise: Cool, now Chryseobacterium sp-62563 propeptide V23S (protein) NQDPNLVAKESNETAMKDFGKTSPVGIEKEDGKFKISFMVTAQPYEIKDSKENAAYISMIKTAVENETPIHVFLKANTNEIAKVDKATDDDIRYFKSVFTKEVKEENRK
Key: 94

Exercise: Cool, now Chryseobacterium sp-62563 propeptide I92S (protein) NQDPNLVAKESNETAMKDFGKTVPVGIEKEDGKFKISFMVTAQPYEIKDSKENAAYISMIKTAVENETPIHVFLKANTNEIAKVDKATDDDSRYFKSVFTKEVKEENRK
Key: 40

Exercise: Cool, now Chryseobacterium sp-62563 propeptide M16G (protein) NQDPNLVAKESNETAGKDFGKTVPVGIEKEDGKFKISFMVTAQPYEIKDSKENAAYISMIKTAVENETPIHVFLKANTNEIAKVDKATDDDIRYFKSVFTKEVKEENRK
Key: 27

Exercise: Cool, now Chryseobacterium sp-62563 propeptide M39F (protein) NQDPNLVAKESNETAMKDFGKTVPVGIEKEDGKFKISFFVTAQPYEIKDSKENAAYISMIKTAVENETPIHVFLKANTNEIAKVDKATDDDIRYFKSVFTKEVKEENRK
Key: 45

Exercise: Cool, now Chryseobacterium sp-62563 propeptide F99R (protein) NQDPNLVAKESNETAMKDFGKTVPVGIEKEDGKFKISFMVTAQPYEIKDSKENAAYISMIKTAVENETPIHVFLKANTNEIAKVDKATDDDIRYFKSVRTKEVKEENRK
Key: 76

Hey, just so you know, these numbers are from patent US20250215412A1.
